# AUC of dose-response viability curve per entry
- Tested on: UO-31
- protocol-notes: AUC of dose-response viability curve, drug + dasatinib, normalised to DMSO (arbitrary (AUC of normalised viability)); higher = less growth inhibition
- details: treatment: drug + dasatinib (fixed dose, not stated); 5 days
parameter-measured: AUC of dose-response viability curve

{"compound": "CCn1nnc2c(N3CCOCC3)nc(-c3ccc(NC(=O)Nc4ccc(C(=O)N5CCN(C)CC5)cc4)cc3)nc21 [PKI-402] + Cc1nc(Nc2ncc(C(=O)Nc3c(C)cccc3Cl)s2)cc(N2CCN(CCO)CC2)n1", "tested-on": "UO-31", "parameter-measured": "AUC of dose-response viability curve", "measured-number": 2.39}
{"compound": "O=C1NC(=O)/C(=C/c2ccc(-c3ccc(F)cc3O)o2)S1 + Cc1nc(Nc2ncc(C(=O)Nc3c(C)cccc3Cl)s2)cc(N2CCN(CCO)CC2)n1", "tested-on": "UO-31", "parameter-measured": "AUC of dose-response viability curve", "measured-number": 3.97}
{"compound": "COc1ccc(C2=NC(c3ccc(Cl)cc3)C(c3ccc(Cl)cc3)N2C(=O)N2CCNC(=O)C2)c(OC(C)C)c1 (centres undefined) [Nutlin-3] + Cc1nc(Nc2ncc(C(=O)Nc3c(C)cccc3Cl)s2)cc(N2CCN(CCO)CC2)n1", "tested-on": "UO-31", "parameter-measured": "AUC of dose-response viability curve", "measured-number": 4.46}
{"compound": "CC(C)(C)c1cc(NC(=O)Nc2ccc(-c3cn4c(n3)sc3cc(OCCN5CCOCC5)ccc34)cc2)no1 [Quizartinib (AC220)] + Cc1nc(Nc2ncc(C(=O)Nc3c(C)cccc3Cl)s2)cc(N2CCN(CCO)CC2)n1", "tested-on": "UO-31", "parameter-measured": "AUC of dose-response viability curve", "measured-number": 3.94}

---

- System: A498
- protocol-notes: minimum viability across doses, drug alone, relative to DMSO (fraction); higher = less growth inhibition
- details: treatment: drug alone; 5 days
parameter-measured: minimum viability across doses

{"molecule": "CCC[C@H](NC(=O)/C(C#N)=C/c1cccc(Br)n1)c1ccccc1 [WP1130]", "measured-number": 0.0682}
{"molecule": "COc1cc2ncnc(Nc3ccc(O)c(Br)c3)c2cc1OC [WHI-P154]", "measured-number": 0.955}
{"molecule": "COc1cc2ncnc(Nc3ccc(F)c(Cl)c3)c2cc1OCCCN1CCOCC1 [Gefitinib (Iressa)]", "measured-number": 1.05}
{"molecule": "COc1ccc2c(OCc3nnc4ccc(-c5ccccc5)nn34)ccnc2c1 [AMG-208]", "measured-number": 1.15}
{"molecule": "Cc1ccccc1-n1c(Cn2ncc3c(N)ncnc32)nc2cccc(C)c2c1=O [PIK-293]", "measured-number": 0.982}
{"molecule": "CS(=O)c1ccc(-c2nc(-c3ccc(F)cc3)c(-c3ccncc3)[nH]2)cc1 (stereo not drawn)", "measured-number": 1.12}
{"molecule": "COc1cc(Nc2ncc(F)c(Nc3ccc4c(n3)NC(=O)C(C)(C)O4)n2)cc(OC)c1OC [R406(free base)]", "measured-number": 1}
{"molecule": "O=C1NC(=O)[C@@H](c2cn3c4c(cccc24)CCC3)[C@@H]1c1c[nH]c2ccccc12 [ARQ 197 (Tivantinib)]", "measured-number": 0.121}
